// IC50 lookup, one value per entry
system: Peritoneal rat mastocytes; assay: mastocyte degranulation test in vitro (inhibition of compound 48/80-induced histamine granule release); assay type: cell-based; conditions: rat peritoneal mastocytes incubated with compound 48/80; dose that inhibits histamine granule release by 50%
assay.readout: IC50 (µM)

INSERT INTO results (compound, system_name, assay_readout, numeric_value) VALUES
  ('CCCc1c(OCCCN2CCC3(CC2)CNC(=O)O3)ccc2c1OCCC2=O', 'Peritoneal rat mastocytes', 'IC50', 100),
  ('CCCc1c(OCCN2CCC3(CC2)CNC(=O)O3)ccc(C(C)=O)c1O', 'Peritoneal rat mastocytes', 'IC50', 200),
  ('CCCc1c(OCCCCCN2CCC3(CC2)CNC(=O)O3)ccc(C(C)=O)c1OC(C)=O', 'Peritoneal rat mastocytes', 'IC50', 2000),
  ('CCCc1c(OCCCCN2CCC3(CC2)CNC(=O)O3)ccc(C(C)=O)c1O', 'Peritoneal rat mastocytes', 'IC50', 200),
  ('CCCc1c(OCCCN2CCC3(CC2)OC(=O)NC3C)ccc(C(C)=O)c1O (centres unmarked)', 'Peritoneal rat mastocytes', 'IC50', 200),
  ('CCCc1c(OCCCN2CCC3(CC2)CNC(=O)O3)ccc2c(=O)cc(C(=O)O)oc12', 'Peritoneal rat mastocytes', 'IC50', 1000),
  ('CC(=O)Oc1c(C(C)=O)ccc(OCCCN2CCC3(CC2)CN(C(C)=O)C(=O)O3)c1CC(C)C', 'Peritoneal rat mastocytes', 'IC50', 730),
  ('C=CCc1c(OCCCN2CCC3(CC2)CN(C(C)=O)C(=O)O3)ccc(C(C)=O)c1OC(C)=O', 'Peritoneal rat mastocytes', 'IC50', 2500);

---

tested on: Peritoneal rat mastocytes; assay: mastocyte degranulation test in vitro (inhibition of compound 48/80-induced histamine granule release); assay type: cell-based; details: rat peritoneal mastocytes incubated with compound 48/80; dose that inhibits histamine granule release by 50%
pIC50: −log10 of the molar value.
Parameter: pIC50. Scope: all listed entries.
assay.readout: pIC50

INSERT INTO assay_data (molecule, assay_readout, cmp, numeric_value) VALUES
  ('CCCc1c(OCCCN2CCC3(CC2)CNC(=O)O3)ccc(C(C)=O)c1O [Example 1]', 'pIC50', '=', 3.62),
  ('C=CCc1c(OCCCN2CCC3(CC2)CNC(=O)O3)ccc(C(C)=O)c1O [Example 1h]', 'pIC50', '=', 3.60),
  ('CCCc1c(OCCCCCCN2CCC3(CC2)CNC(=O)O3)ccc(C(C)=O)c1O [Example 1e]', 'pIC50', '=', 4.04),
  ('CCCc1c(OCCCN2CCC3(CC2)CNC(=O)O3)ccc2c(=O)cc(C(=O)OCC)oc12 [Example 1i]', 'pIC50', '=', 4.00),
  ('CCc1c(OCCCN2CCC3(CC2)CN(C(C)=O)C(=O)O3)ccc(C(C)=O)c1OC(C)=O [Example 4c]', 'pIC50', '<', 3.00),
  ('C=CCc1c(OCCCN2CCC3(CC2)CN(C(C)=O)C(=O)O3)ccc(C(C)=O)c1O [Example 5]', 'pIC50', '=', 3.12),
  ('CC(=O)c1ccc(OCCCN2CCC3(CC2)CNC(=O)O3)c(CC(C)C)c1O [Example 1l]', 'pIC50', '=', 3.94),
  ('CCc1c(OCCCN2CCC3(CC2)CNC(=O)O3)ccc(C(C)=O)c1O [Example 1k]', 'pIC50', '=', 3.08);

---

tested on: Peritoneal rat mastocytes; assay: mastocyte degranulation test in vitro (inhibition of compound 48/80-induced histamine granule release); assay type: cell-based; details: rat peritoneal mastocytes incubated with compound 48/80; dose that inhibits histamine granule release by 50%
pIC50: −log10 of the molar value.
assay.readout: pIC50

INSERT INTO results (compound, numeric_value) VALUES
  ('CCCc1c(OCCCCCN2CCC3(CC2)CN(C(C)=O)C(=O)O3)ccc(C(C)=O)c1OC(C)=O [Example 4b]', 3.00),
  ('CCCc1c(OCCCCCN2CCC3(CC2)CNC(=O)O3)ccc(C(C)=O)c1O [Example 1d]', 3.96),
  ('CCCc1c(OCCN2CCC3(CC2)OC(=O)NC3C)ccc(C(C)=O)c1O (stereo not drawn) [Example 1f]', 4.00),
  ('CCCc1c(OCCCN2CCC3(CC2)CNC(=O)O3)ccc(C(C)=O)c1OC(C)=O [Example 6]', 2.92),
  ('CCCc1c(OCCCN2CCC3(CC2)CN(C(C)=O)C(=O)O3)ccc(C(C)=O)c1OC(C)=O [Example 4]', 3.14),
  ('CCCc1c(OCC(O)CN2CCC3(CC2)CNC(=O)O3)ccc(C(C)=O)c1O (stereo not drawn) [Example 1c]', 3.00);
